inhibition values by entry
target: Mitogen-activated protein kinase 9 (Homo sapiens) (UniProt P45984); settings: at 1 µM;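 also: reported figure is the mean inhibition of JNK2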
Sequence (P45984 whole entry, looked up): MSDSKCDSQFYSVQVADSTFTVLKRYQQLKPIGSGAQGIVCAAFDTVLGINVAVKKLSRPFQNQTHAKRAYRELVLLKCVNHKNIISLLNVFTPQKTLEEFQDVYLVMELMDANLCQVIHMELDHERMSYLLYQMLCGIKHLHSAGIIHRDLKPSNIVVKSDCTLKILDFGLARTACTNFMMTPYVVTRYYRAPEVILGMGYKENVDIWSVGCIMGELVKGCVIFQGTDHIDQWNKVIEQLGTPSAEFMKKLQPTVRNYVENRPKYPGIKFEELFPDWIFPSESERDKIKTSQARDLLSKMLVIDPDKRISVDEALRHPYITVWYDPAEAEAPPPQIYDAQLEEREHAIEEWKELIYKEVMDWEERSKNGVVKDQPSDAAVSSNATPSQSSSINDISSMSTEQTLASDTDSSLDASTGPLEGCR
assay endpoint: inhibition (%)

CC(=O)Nc1cccc(C#Cc2cncnc2Nc2ccc(OCc3cccc(F)c3)c(Cl)c2)c1 :: 3.22
COc1cc(Nc2nccc(Nc3ccc4c(C)n[nH]c4c3)n2)cc(OC)c1OC :: 13.6
c1ccc(COc2ccc(Nc3ncnc4ccc(-c5ccco5)cc34)cc2)cc1 :: 1.07

###

Target: Homeodomain-interacting protein kinase 4 (Homo sapiens);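 also: values are mean percent inhibition of HIPK4 from the GSK PKIS kinase screen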
Sequence (whole entry): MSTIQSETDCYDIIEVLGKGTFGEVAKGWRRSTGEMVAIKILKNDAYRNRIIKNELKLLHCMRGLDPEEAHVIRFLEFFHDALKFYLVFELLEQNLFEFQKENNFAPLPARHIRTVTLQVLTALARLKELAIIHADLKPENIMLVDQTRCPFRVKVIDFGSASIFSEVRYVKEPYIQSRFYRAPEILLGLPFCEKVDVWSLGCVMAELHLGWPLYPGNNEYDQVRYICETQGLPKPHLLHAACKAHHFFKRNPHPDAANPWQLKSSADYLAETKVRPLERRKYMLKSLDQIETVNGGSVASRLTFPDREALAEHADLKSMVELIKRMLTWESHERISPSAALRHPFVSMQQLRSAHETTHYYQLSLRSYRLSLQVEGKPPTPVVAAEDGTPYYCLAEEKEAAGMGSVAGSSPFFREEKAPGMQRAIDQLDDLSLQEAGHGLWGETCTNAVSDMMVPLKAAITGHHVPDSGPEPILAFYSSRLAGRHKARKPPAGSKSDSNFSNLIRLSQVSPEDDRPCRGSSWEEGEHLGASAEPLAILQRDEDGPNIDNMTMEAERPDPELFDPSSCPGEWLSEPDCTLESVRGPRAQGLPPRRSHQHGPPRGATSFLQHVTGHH
Conditions: at 1 µM
inhibition values by entry
assay endpoint: inhibition (%)

CCn1c(-c2nonc2N)nc2ccccc21 :: 4.14
Fc1ccc(-c2cc(-c3c[nH]nc3-c3ccccn3)ccn2)cc1 :: 4.16
COc1ccc(-c2oc3ncnc(N)c3c2-c2ccc(NC(=O)Nc3cc(C(F)(F)F)ccc3F)cc2)cc1 :: 88.8
COC(=O)c1sc(-n2cnc3cc(OC)c(OC)cc32)cc1OCc1ccccc1C(F)(F)F :: 1.47
CCn1cc(-c2ccnc3[nH]ccc23)c(-c2cccc(NC(=O)Nc3ccc(OCc4ccccc4)cc3)c2)n1 :: -0.81
COc1ccc2c(-c3ccnc(Nc4cccc(OC(F)(F)F)c4)n3)cnn2n1 :: 83
CCCN1CCC(c2ccc(Nc3nc(Nc4cc(F)ccc4C(N)=O)c4cc[nH]c4n3)c(OC)c2)CC1 :: 84.6
